- Test system: S. aureus UC-76
- protocol.details: Antibacterial microtitration assay (Test A), MIC
- Type: cell-based
- stated.conditions: Staphylococcus aureus, UC76; Gram Positive Bacteria; strain UC-76; read-out: Minimum Inhibitory Concentrations S. aureus UC-76
quantity.kind: MIC (µg/mL)

Examples from the recorded data:
molecule: Cc1c(N2CCC(CO)C2)c(F)cc2c(=O)n(N)c(=O)n(C3CC3)c12 (centres unmarked) [drawing 320]
endpoint.unit: µg/mL
MIC: 0.5

molecule: COc1c(N2CCC(C(O)C(C)(F)F)C2)c(F)cc2c(=O)n(N)c(=O)n(C3CC3)c12 (centres unmarked) [drawing 323]
endpoint.unit: µg/mL
MIC: 2

molecule: COc1c(N2CCC(C(O)C3(CO)CC3)C2)c(F)cc2c(=O)n(N)c(=O)n(C3CC3)c12 (centres unmarked) [drawing 325]
endpoint.unit: µg/mL
MIC: 0.5

molecule: Cc1c(N2CC3CCC(O)(CO)C3C2)c(F)cc2c(=O)n(N)c(=O)n(C3CC3)c12 (centres unmarked) [drawing 345]
endpoint.unit: µg/mL
MIC: 1

I = COCC1CCN(c2c(F)cc3c(=O)n(N)c(=O)n(C4CC4)c3c2OC)C1 (centres unmarked) [drawing 328]
II = Nn1c(=O)c2cc(F)c(N3C[C@H](CO)[C@H](F)C3)nc2n(C2CC2)c1=O [drawing 339]
[Q] Exercise: compare I and II ; which one has the greater MIC? Reply briefly: the label of your chosen item.
[A] I
(I: 1 µg/mL, II: 0.25 µg/mL)

a = COc1c(N2CCC(CCO)C2)c(F)cc2c(=O)n(N)c(=O)n(C3CC3)c12 (centres unmarked) [drawing 324]
b = Cc1c(N2CCC(C(O)CO)C2)c(F)cc2c(=O)n(N)c(=O)n(C3CC3)c12 (centres unmarked) [drawing 326]
[Q] Compare the recorded MIC of a and b ; state which is larger. Mark your selection by writing its label.
[A] a

###

- Tested on: M. catarrhalis BC-3531
- protocol.details: Antibacterial microtitration assay (Test A), MIC
- Format: cell-based
- stated.conditions: Moraxella catarrhalis, BC3531; Gram Negative Bacteria; strain BC-3531; read-out: Minimum Inhibitory Concentrations M. catarrhalis BC-3531
quantity.kind: MIC (µg/mL)

Solved cases (4 shown):
molecule: Cc1c(N2CCC(CO)C2)c(F)cc2c(=O)n(N)c(=O)n(C3CC3)c12 (centres unmarked) [drawing 311]
MIC [µg/mL]: 1
//
molecule: Cc1c(N2C[C@](C)(CO)[C@](C)(CO)C2)c(F)cc2c(=O)n(N)c(=O)n(C3CC3)c12 [drawing 341]
MIC [µg/mL]: 32
//
molecule: Nn1c(=O)c2cc(F)c(N3C[C@@H](CO)[C@@H](CO)C3)nc2n(C2CC2)c1=O [drawing 330]
MIC [µg/mL]: 1
//
molecule: Cc1c(N2CC3CCC(O)(CO)C3C2)c(F)cc2c(=O)n(N)c(=O)n(C3CC3)c12 (centres unmarked) [drawing 344]
MIC [µg/mL]: 4

I = COCC1CCN(c2c(F)cc3c(=O)n(N)c(=O)n(C4CC4)c3c2OC)C1 (centres unmarked) [drawing 319]
II = COc1c(N2CCC(CCO)C2)c(F)cc2c(=O)n(N)c(=O)n(C3CC3)c12 (centres unmarked) [drawing 315]
III = Nn1c(=O)c2cc(F)c(N3C[C@@H](O)[C@@H](O)C3)nc2n(C2CC2)c1=O [drawing 332]
IV = COc1c(N2CCC(C(O)C(C)(F)F)C2)c(F)cc2c(=O)n(N)c(=O)n(C3CC3)c12 (centres unmarked) [drawing 314]
[Q] Put the items in sequence by MIC, from largest down. # respond with the labels, arranged in the requested order
[A] IV, I, III, II

This collection of values is drawn from patent US20050119231A1.
